These entries and their values trace back to ChEMBL document CHEMBL1201862.

Tested on: UO-31
Test: NCI tumour cell line growth inhibition, 48 h
Activity calls are given as the source filed them. Cut-off read from the data, not from the text of the source: active = GI50 up to about 1.1 µM and inactive = higher.
Assay Readout: GI50

{"columns": ["Compound", "GI50"],
 "data": [
  ["NC(=O)NO [HYDROXYUREA]", "508 µM (inactive)"],
  ["Cc1ccccc1/N=C/N(C)C", "74.6 µM (inactive)"],
  ["CCOC(=O)/C=C/CCO[Si](C)(C)C(C)(C)C", "> 100 µM (inactive)"],
  ["c1ccc(C(=NCCC2CNc3ccccc32)c2ccccc2)cc1 (stereo unspecified)", "> 100 µM (inactive)"],
  ["CC1=C(Cl)C=CP(=O)(Oc2ccccc2)C1 (stereo unspecified)", "38.3 µM (inactive)"],
  ["C=C1CC[C@@H]2[C@](C)(COC(=O)CCC(=O)O)CCC[C@@]2(C)[C@@H]1CCC1=CC(=O)OC1", "> 100 µM (inactive)"],
  ["COC(=O)C(=O)C(C(=O)C(=O)Nc1ccc([N+](=O)[O-])cc1[N+](=O)[O-])c1nc2ccc([N+](=O)[O-])cc2nc1O (stereo unspecified)", "53 µM (inactive)"],
  ["CCOC1Oc2ccccc2-c2nc(SC)ncc21 (stereo unspecified)", "51.3 µM (inactive)"]
]}

Query: Quick check: GI50 of O=C(O)Cc1cccc2c(=O)cc(-c3ccccc3)oc12 ?
Reply: 147 µM (inactive)

Query: Please give the result for COc1cc(OC)c2c(O)cc(CC(C)O)cc2c1 (stereo unspecified) too.
Reply: > 100 µM (inactive)

Query: Follow-up entry: Cc1ccc(C)c(NC(=O)/C(=N\NC(N)=S)C(C#N)c2ccccc2)c1 (stereo unspecified)
Reply: > 100 µM (inactive)

* * *

System: HCC 2998
Assay: NCI tumour cell line growth inhibition, 48 h
Active and inactive are the calls of the source. Rule as the data show it: active = GI50 up to about 1.1 µM and inactive = higher.
Please reply with one of these outcomes: active, inactive

{"columns": ["Molecule", "Tested Target", "Category Label"],
 "data": [
  ["O=C1CC(c2ccccc2Cl)C2(C(=O)NC(=S)NC2=O)C(c2ccccc2Cl)C1 (stereo not given)", "HCC 2998", "inactive"],
  ["N#C[BH2-][n+]1cn(C2CC(OP(=O)(O)OCC3OC(n4ccc(N)nc4=O)CC3O)C(CO)O2)c2nc(N)[nH]c(=O)c21 (stereo not given)", "HCC 2998", "inactive"],
  ["O=C(CC(=O)N1N=C(c2ccccc2)C(/N=N/c2ccccc2Cl)C1=O)Nc1ccccc1Cl (stereo not given)", "HCC 2998", "inactive"]
]}

Query: Given COC(=O)c1ccc(/C=C/c2cc(O)ccc2O)cc1 , state the outcome it received in this test.
Reply: inactive

Query: What do you have for CC1=C2N3C[C@@H](n4c(=O)n(C)c(=O)n43)C23CCC1n1c(=O)n(C)c(=O)n13 ?
Reply: inactive

Query: Entry C=CCOC(=O)c1c(C)[n+]([O-])c2cc(Cl)c(Cl)cc2[n+]1[O-] please
Reply: inactive

Query: Also, CCOC(=O)C1CCCc2sc(N)c(C#N)c21 (stereo not given) please.
Reply: inactive

Query: Another molecule: N#Cc1sc2c(c1O)c(=O)n(-c1ccccc1)c(=S)n2-c1ccccc1
Reply: inactive

Query: Try this molecule too: CN(C)c1ccc(C(=C2C=CC(=[N+](C)C)C=C2)c2ccc(N(C)C)cc2)cc1 [GENTIAN VIOLET]
Reply: active

Query: Please give the result for COC(=O)C1(NC(=O)C(Cc2ccccc2)N(C(=O)OC(C)(C)C)C(=O)OC(C)(C)C)CCCC1 (stereo not given) too.
Reply: inactive
